target: T1, HLA-A0201 on T2 cells (human); assay: T2 cell HLA-A0201 assay, flow cytometry with FITC anti-HLA-A0201 mAb, peptide 100 µM
T1 construct: MHC class I molecule on T2 cells; also called HLA-A0201 molecule; HLA-A2
METRIC: Average fluorescence intensity
Answer as a number with no unit attached.

Guide cases for Average fluorescence intensity, answers given:
- BINDER: "TLISSLMPI (Made by solid phase synthesis, purity >90%; also called peptide (a); tumor antigen peptide) [mutant peptide TLISSLMPI]"
  METRIC: "Average fluorescence intensity"
  MEASURED_RESULT: 683
- BINDER: "TMISSLMPL [variant peptide TMISSLMPL]"
  METRIC: "Average fluorescence intensity"
  MEASURED_RESULT: 764

Please examine the following record next.
[in] Query (binder): TMISSLMPV [variant peptide TMISSLMPV] ; field requested: Average fluorescence intensity
[out] 776

Cited source for all entries: patent US20200024316A1
